Target: CHO-CHOP luciferase reporter, UPR activation, luminescence
Test: CHOP reporter induction, apoptotic UPR branch – CHO-CHOP cells, luciferase luminescence, confirmation (AID 489024);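 also: compounds added alone to reporter cells with no tunicamycin stress co-treatment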
Active and inactive are the calls of the source.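 The calls were made as follows: active = compounds whose mean EC50, the dose giving half the maximal reporter activation, is at or below a set limit; inactive = the rest.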
Possible outcomes: active, inactive

INSERT INTO assay_data (compound, discrete_label) VALUES
  ('Nc1nc(CC(=O)CSc2ccc(Cl)cc2)nc(Nc2ccc(F)cc2)n1', 'inactive'),
  ('COc1cc(SC#N)ccc1N=Cc1c(C)[nH]n(-c2ccc(C)c(C)c2)c1=O', 'active'),
  ('Oc1c(CN2CCc3ccccc3C2)cc(Cl)c2cccnc12', 'active'),
  ('O=C(c1ccc(Br)cc1)C(CN1CCOCC1)c1ccccc1 (configuration not stated)', 'active'),
  ('Cc1ccc2oc(Nc3nc(-c4ccccc4)cc(=O)[nH]3)nc2c1', 'active'),
  ('COc1ccc(OC)c(Nc2nc(-c3ccc(O)c(O)c3)cs2)c1', 'active'),
  ('CCOC(=O)c1cnc(-n2nc(C)cc2C)nc1NC1CCCCC1', 'inactive'),
  ('Cc1ccc2nc(-c3ccc(O)c(O)c3)cn2c1', 'active'),
  ('C/C(CCC12CC3CC(CC(C3)C1)C2)=N\NC(N)=S', 'active'),
  ('O=C1NC(=O)C(=Cc2ccc(-c3ccc(Cl)cc3)o2)C(=O)N1', 'active'),
  ('COc1ccc(CCN2CCC(Nc3nc4ccccc4n3Cc3ccc(F)cc3)CC2)cc1', 'active'),
  ('Cc1ccc(S(=O)(=O)N(C(=O)c2ccncc2)c2ccc(OC(=O)c3ccncc3)c3ccccc23)c(C)c1', 'active'),
  ('CCOc1ccc(-n2c(C)cc(C(=O)CCl)c2C)cc1', 'active'),
  ('Clc1ccc(-c2ccc(/C=N/Nc3nncc(-c4ccccc4)n3)o2)cc1', 'active'),
  ('O=C(N/N=C/c1ccc(O)c(O)c1)NC12CC3CC(CC(C3)C1)C2', 'active'),
  ('CCOC(=O)N1CCN(S(=O)(=O)c2ccc(C(=O)Nc3nc4c(s3)CC(C)CC4)cc2)CC1 (configuration not stated)', 'inactive'),
  ('CCOC(=O)C(=Cc1ccc(F)cc1)C(=O)OCC', 'inactive'),
  ('Cc1sc(NC(=O)c2cc(-c3ccc(Cl)cc3)nc3ccccc23)c(C(N)=O)c1C', 'inactive'),
  ('O=C(Nc1ccc(N2CCOCC2)cc1)c1ccc([N+](=O)[O-])o1', 'active'),
  ('O=C(NC(=S)Nc1ccc(NC(=O)c2cccs2)cc1)c1cc2ccccc2o1', 'inactive'),
  ('COc1cccc2sc(Nc3nc(-c4ccccn4)cs3)nc12', 'active'),
  ('Cc1ccc(NC(=O)Cn2ncc(Cl)c(Cl)c2=O)cc1S(=O)(=O)N1CCCCC1', 'active');

* * *

Target: CHO-CHOP luciferase reporter, UPR activation, luminescence
Assay: CHOP reporter induction, apoptotic UPR branch – CHO-CHOP cells, luciferase luminescence, confirmation (AID 489024);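 also: compounds added alone to reporter cells with no tunicamycin stress co-treatment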
Active and inactive are the calls of the source.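 Rule for the calls: active = compounds whose mean EC50, the dose giving half the maximal reporter activation, is at or below a set limit; inactive = the rest.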
Possible outcomes: Yes = active, No = inactive

INSERT INTO measurements (compound, discrete_label) VALUES
  ('CN(/N=C\c1ccc(O)c(O)c1)c1nc(-c2ccccc2)cc(-c2ccccc2)n1', 'Yes'),
  ('Cc1ccc(C(C)C)c(OCc2ccc(C(=O)N/N=C/c3ccc(O)c(O)c3)cc2)c1', 'No'),
  ('COc1ccc(N2C(=O)/C(=C/c3cccs3)C(=O)NC2=S)cc1', 'Yes'),
  ('Cc1ccc(/C=C/C(=O)c2ccc([N+](=O)[O-])o2)cc1', 'Yes'),
  ('COc1ccc(C2OC34CCCCC3C(C#N)(C#N)C2(C#N)C(=N)O4)cc1 (stereo unspecified)', 'No'),
  ('CCCCCCCCCn1c2c(c(=N)c3c1CCC3)CCC2', 'No'),
  ('Cc1ccc(-c2nc(NC(=O)c3nn(C)cc3[N+](=O)[O-])sc2C)cc1C', 'Yes'),
  ('O=c1c2ccccc2nc(/C=C/c2ccc([N+](=O)[O-])o2)n1-c1ccc(O)cc1', 'Yes'),
  ('O=C(NCc1cccnc1)/C(=C/c1ccc(-c2ccc(Cl)cc2)o1)S(=O)(=O)c1ccccc1', 'Yes'),
  ('Cc1cc(C)cc(N2C(=O)NC(=O)/C(=C\c3cccn3-c3ccccc3)C2=O)c1', 'Yes'),
  ('COc1ccc(-c2cc(-c3ccccc3)c(C#N)c(S(C)(=O)=O)n2)cc1', 'Yes'),
  ('O=C(Nc1ccc(C(F)(F)F)cc1)c1cc(-c2cccnc2)nc2ccc(Br)cc12', 'Yes'),
  ('CCOC(=O)c1cnc(Nc2nc3ccccc3o2)nc1CSC(=S)N(CC)CC', 'Yes'),
  ('Cc1ccc(-c2nn(-c3ccccc3)cc2C=C2C(=O)CC(C)(C)CC2=O)cc1', 'Yes'),
  ('COC(=O)c1ccc(-n2c(C)cc(C(=O)CCl)c2C)cc1', 'Yes'),
  ('CCCCNC1C(CC)C(CCC)C(C#N)(C#N)C1(C#N)C#N (stereo unspecified)', 'No');
